- Test system: Cytochrome P450 2C9 (Homo sapiens) (UniProt P11712)
- Sequence (P11712 whole entry, looked up): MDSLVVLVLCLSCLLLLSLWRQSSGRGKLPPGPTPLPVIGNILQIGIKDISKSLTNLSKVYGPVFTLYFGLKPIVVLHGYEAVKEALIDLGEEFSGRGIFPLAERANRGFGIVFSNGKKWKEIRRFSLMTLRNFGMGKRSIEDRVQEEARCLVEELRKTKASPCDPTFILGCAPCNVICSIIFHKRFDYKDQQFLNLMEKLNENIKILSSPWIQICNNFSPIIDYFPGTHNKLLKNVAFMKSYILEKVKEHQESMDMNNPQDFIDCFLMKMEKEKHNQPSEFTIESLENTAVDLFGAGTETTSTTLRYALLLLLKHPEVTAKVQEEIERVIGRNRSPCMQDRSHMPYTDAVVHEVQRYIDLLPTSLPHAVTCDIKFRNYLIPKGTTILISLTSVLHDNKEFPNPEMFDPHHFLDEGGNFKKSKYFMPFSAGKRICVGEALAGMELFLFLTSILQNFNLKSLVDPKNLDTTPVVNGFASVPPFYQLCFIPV
- Test name: Cytochrome panel assay with activity outcomes; as to activity, negative = inhibition: % is scaled to controls: 0 for no effect and ±100 for the full control effect
- Test context: recombinant CYP, pro-luciferin dealkylation, luminescence, p450-cyp2c9; series mostly up to 57.1 µM
About 4,000 (25%) of roughly 16,000 compounds were called active. Not shown: some 26% with an inconclusive outcome. The list is a sample of the results.
Quantity kind: activity, negative = inhibition

[[record]]
molecule = "O=C(CCN1CC2CCC(CC2)C1)c1cccs1"
test_system = "Cytochrome P450 2C9 (Homo sapiens) (UniProt P11712)"
result = "-7.86% [at 11.4 µM] (inactive)"

[[record]]
molecule = "Cc1c2cc[n+](CCN3CCCCC3)cc2c(C)c2c1[nH]c1ccc(O)cc12"
test_system = "Cytochrome P450 2C9 (Homo sapiens) (UniProt P11712)"
result = "17.8% [at 11.4 µM] (inactive)"

[[record]]
molecule = "S=C(Nc1ccc(Cl)cc1)NC1CC2CCCC(C1)N2C1CCCC1 (stereo not drawn)"
test_system = "Cytochrome P450 2C9 (Homo sapiens) (UniProt P11712)"
result = "inactive"

[[record]]
molecule = "Cc1nc2ccccc2cc1C[N+]12CN3CN(CN(C3)C1)C2"
test_system = "Cytochrome P450 2C9 (Homo sapiens) (UniProt P11712)"
result = "18.3% [at 11.4 µM] (inactive)"

[[record]]
molecule = "COc1cc2c(cc1O)C[C@H]1c3c(cc(O)c(OC)c3-2)CCN1C"
test_system = "Cytochrome P450 2C9 (Homo sapiens) (UniProt P11712)"
result = "inactive"


Given O=C(O)C(C(=O)O)P(=S)(S)c1ccccc1 (stereo not drawn) , state its recorded activity, negative = inhibition. 4.02% [at 11.4 µM] (inactive)

Another molecule: CC1=C(O)C(=O)[C@H]2O[C@@H]2C1=O inactive

----------
- Test system: Cytochrome P450 2C9 (Homo sapiens) (UniProt P11712)
- Test name: Cytochrome panel assay with activity outcomes
- Test context: recombinant CYP, pro-luciferin dealkylation, luminescence, p450-cyp2c9; series mostly up to 57.1 µM
In all, about 16,000 compounds went through this assay and about 4,000 (25%) were called active. Roughly 26% stayed inconclusive and do not appear here. The list is a sample of the results.
Quantity kind: AC50

API: value(readout= AC50, system= Cytochrome P450 2C9 (Homo sapiens) (UniProt P11712), query= CCCCC/C=C\C/C=C\C/C=C\C/C=C\CCCC(=O)Nc1ccc(O)cc1 ) 5.01 µM (active)

Same thing, different compound: O=[N+]([O-])c1cc(O)c(O)c([N+](=O)[O-])c1 0.794 µM (active)

Now the compound O=C(c1csnn1)N1CCC2(CC1)CN(Cc1ccncc1)C2 10 µM (active)

// repeat for O=C(O)CN1CCN(CC(=O)O)CC(=O)[O][Hg][O]C(=O)C1 and report 1.26 µM (active)

# iterate: O=C1CCCN1CC#CCN1CCCC1 2 µM (active)

Thanks! And O=C(CN1CCCCC1)Nc1ccc(Br)cc1C(=O)c1ccccc1Cl ? 8.91 µM (active)

Input COc1cc([C@H]2c3cc4c(cc3[C@@H](O)[C@@H]3COC(=O)[C@H]23)OCO4)cc(OC)c1OC 1.26 µM (active)

Please answer likewise for O=C1Nc2ccc(I)cc2/C1=C/c1cc(Br)c(O)c(Br)c1 12.6 µM (active)

Repeat with C/C=C(\C)C(=O)O[C@@H]1C(C)=C2[C@H]([C@@H]1OC(=O)CCCCCCC)[C@@](C)(OC(C)=O)C[C@@H](OC(=O)CCC)[C@@]1(O)[C@H]2OC(=O)[C@]1(C)O 31.6 µM (active)

Cool, now CCOc1ccc2c(c1)C(C)=CC(C)(C)N2 2 µM (active)

----------
- Test system: Cytochrome P450 2C9 (Homo sapiens) (UniProt P11712)
- Test name: Cytochrome panel assay with activity outcomes; as to activity, negative = inhibition: % is scaled to controls: 0 for no effect and ±100 for the full control effect
- Test context: recombinant CYP, pro-luciferin dealkylation, luminescence, p450-cyp2c9; series mostly up to 57.1 µM
The whole screen tested about 16,000 compounds, of which about 4,000 (25%) were called active. Another 26% or so got no clear call; they are omitted. Only a sample is shown.
Quantity kind: activity, negative = inhibition

Completed entries (count: 8):
[[record]]
molecule = "CCCC[N+]1(C)[C@@H]2CC(OC(=O)[C@@H](CO)c3ccccc3)C[C@H]1[C@H]1O[C@H]12 (some centres undefined)"
quantity_kind = "activity, negative = inhibition"
result = "inactive"

[[record]]
molecule = "Oc1ccc(CCNCc2cc3c(cc2Br)OCO3)cc1"
quantity_kind = "activity, negative = inhibition"
result = "-10.6% [at 11.4 µM] (inactive)"

[[record]]
molecule = "COc1cc2c(cc1OC)[C@]13CC[N@+]4(C)CC5=CCO[C@H]6CC(=O)N2[C@@H]1[C@@H]6[C@@H]5C[C@]34O"
quantity_kind = "activity, negative = inhibition"
result = "-6.22% [at 11.4 µM] (inactive)"

[[record]]
molecule = "C=C(C)[C@H]1CC[C@]2(CO)CC[C@]3(C)[C@@H](CC[C@H]4[C@@]5(C)CC[C@@H](O)C(C)(C)[C@@H]5CC[C@@]43C)[C@H]12"
quantity_kind = "activity, negative = inhibition"
result = "inactive"

[[record]]
molecule = "CCN(CCCl)Cc1ccccc1Br"
quantity_kind = "activity, negative = inhibition"
result = "inactive"

[[record]]
molecule = "CCCn1c(C)c(C(=O)c2ccc3ccccc3c2)c2ccccc21"
quantity_kind = "activity, negative = inhibition"
result = "inactive"

[[record]]
molecule = "C[N+]1(C)[C@@H]2CC[C@H]1CC(OC(=O)[C@@H](CO)c1ccccc1)C2 (some centres undefined)"
quantity_kind = "activity, negative = inhibition"
result = "inactive"

[[record]]
molecule = "N[C@H](CP(=O)(O)O)C(=O)O"
quantity_kind = "activity, negative = inhibition"
result = "inactive"


For the record CN1[C@@H]2CC[C@H]1CC(O[C@@H](c1ccccc1)c1ccc(Cl)cc1)C2 (some centres undefined) , what value of activity, negative = inhibition is listed for Cytochrome P450 2C9 (Homo sapiens) (UniProt P11712)? inactive

Would you mind doing C[C@H]1[C@H](NC(=O)/C(=N/OC(C)(C)C(=O)O)c2csc(N)n2)C(=O)N1S(=O)(=O)O (stereo in doubt) as well? inactive

Another molecule to look at: C=C(C)c1ccccc1 (tested in a mixture with another compound) -0.349% [at 11.4 µM] (inactive)

----------
- Test system: Cytochrome P450 2C9 (Homo sapiens)
- Test name: Cytochrome panel assay with activity outcomes; as to activity, negative = inhibition: % is scaled to controls: 0 for no effect and ±100 for the full control effect
- Test context: recombinant CYP, pro-luciferin dealkylation, luminescence, p450-cyp2c9; series mostly up to 57.1 µM
The campaign covered roughly 16,000 compounds. About 4,000 (25%) were called active. Inconclusive results (about 26%) are left out. The list is a sample of the results.
Quantity kind: activity, negative = inhibition

For orientation, consider the following solved cases.
[[record]]
molecule_smiles = "NC(N)=Nc1ccc2[nH]c3c(c2c1)C[C@]1(O)[C@@H]2Cc4ccc(O)c5c4[C@]1(CCN2CC1CC1)[C@H]3O5"
result = "inactive"

[[record]]
molecule_smiles = "C[C@H](CC(C#N)(c1ccccc1)c1ccccc1)N1CCCCC1"
result = "6.88% [at 11.4 µM] (inactive)"

[[record]]
molecule_smiles = "c1ccc2c(N3CCNCC3)cccc2c1"
result = "inactive"

[[record]]
molecule_smiles = "Cc1cc(C(C)(C)C)cc(C)c1CC1=NCCN1"
result = "inactive"

[[record]]
molecule_smiles = "COc1cc2c(cc1O)C[C@@H]1c3c(cc(O)c(OC)c3-2)CCN1C"
result = "-4.78% [at 11.4 µM] (inactive)"


We next turn to a different compound, shown below.
What value of measured activity, negative = inhibition is listed for C[N+]1(C)CCO[C@](O)(c2ccc(-c3ccc([C@]4(O)C[N+](C)(C)CCO4)cc3)cc2)C1 ? inactive

----------
- Test system: Cytochrome P450 2C9 (Homo sapiens)
- Test name: Cytochrome panel assay with activity outcomes; as to activity, negative = inhibition: % is scaled to controls: 0 for no effect and ±100 for the full control effect
- Test context: recombinant CYP, pro-luciferin dealkylation, luminescence, p450-cyp2c9; series mostly up to 57.1 µM
Hit rate of the full screen: of about 16,000 compounds, about 4,000 (25%) were called active. Another 26% or so got no clear call; they are omitted. Not all results are given here.
Quantity kind: activity, negative = inhibition

[[record]]
molecule_smiles = "N=C(N)n1cc(/C=N\\N=C(N)N)cn1"
result = "5.35% [at 11.4 µM] (inactive)"

[[record]]
molecule_smiles = "CCCCn1c(O)c(C=NCCN2CCCCC2)c(=O)[nH]c1=O"
result = "inactive"

[[record]]
molecule_smiles = "COc1ccc(C(=O)O[C@H]2CC[C@@]3(C)[C@H]4CC[C@H]5[C@]3(C[C@]3(O)[C@H]6CN7C[C@H](C)CC[C@H]7[C@](C)(O)[C@]6(O)[C@H](O)C[C@]53O)O[C@]24O)cc1OC"
result = "-11.3% [at 11.4 µM] (inactive)"

[[record]]
molecule_smiles = "COc1cc2c(c(OC)c1OC)-c1ccc(O)c(=O)cc1[C@H](N)CC2"
result = "inactive"


Give its activity, negative = inhibition value. Item: N[C@@H](Cc1ccccc1)P(=O)(O)O -8.88% [at 11.4 µM] (inactive)
